experiment: fixK promoter GFP reporter activation – B. multivorans, primary screen (AID 1918990); settings: 18 h, stronger effect = higher value
Out of some 29,000 compounds screened, about 85 (0.3%) were called active. Shown is part of a subset that was picked to be rich in actives.
Definition: the class of an entry is the range in low bracket (below -1), middle bracket (-1 to below -0.1), high bracket (-0.1 or more) that contains its z-score.

Recorded results for 8 compounds are shown here.
CCOC(=O)c1ccc(NC(=O)CC2C(=O)N(c3cccc(OC)c3)C(=O)N2C2CCCCC2)cc1 (stereo unspecified)
middle bracket
Cc1ccn2c(Nc3ccc4c(c3)OCCO4)c(-c3ccc(C)s3)nc2c1
high bracket
Cc1cc(C)nc(CCNC(=O)N(Cc2ccncc2)CC2CCC(=O)N2)n1 (stereo unspecified)
high bracket
CNC(=O)c1cccc(NC(=O)CCCc2cccs2)c1C
low bracket
Cc1cccc2nc(-c3ccc(Cl)s3)c(Nc3ccc4c(c3)OCCO4)n12
high bracket
COC(=O)c1ccc(C2C(C(=O)Nc3ccccc3)=C(C)Nc3nc4ccccc4n32)cc1 (stereo unspecified)
low bracket
CCCNC(=O)CCn1nc(-c2ccccc2)c2ccccc2c1=O
low bracket
CN1CCCn2nc(C(=O)NCCCCc3ccccc3)cc2C1
low bracket

// bin(item) where item = CC(NC(=O)N1CCCN(C(=O)C(F)(F)F)CC1)c1ccc(Cl)cc1 (stereo unspecified)
high bracket

Bin this entry: CCOC(=O)c1ccc(-c2ccc(/C=C(\C#N)C(=O)Nc3ccc(OCC)cc3)o2)cc1
high bracket

Hello team, could you let me know which band the following compound falls into: CCC(=O)N1CCc2cc(Br)cc(S(=O)(=O)CCC(=O)N3CCN(c4ccc(F)cc4)CC3)c21
high bracket

* * *

experiment: fixK promoter GFP reporter activation – B. multivorans, primary screen (AID 1918990); conditions: 18 h, stronger effect = higher value
Among all 29,000 compounds or so, about 85 (0.3%) were called active. The full list was thinned out, with actives kept by preference.
Each entry gets 0 if its z-score stays under -0.6, and 1 if its z-score is -0.6 or above.

CCOC(=O)c1cc2c(=O)n3ccccc3nc2n(CCCOC)c1=NC(=O)C(C)(C)Oc1ccc(Cl)cc1
1
O=C1CCC2(CCCN(C(=O)c3n[nH]c4c3CCCC4)C2)CN1CC1CC1 (configuration not stated)
1

Field: next compound
Textbook exercise: given the entry COc1cc(C2c3c(oc4ccccc4c3=O)C(=O)N2c2nc(C)c(C)s2)ccc1O (configuration not stated) , state whether its z-score is greater than or equal to -0.6.
0

* * *

assay: fixK promoter GFP reporter activation – B. multivorans, primary screen (AID 1918990); conditions: 18 h, stronger effect = higher value
About 85 (0.3%) of roughly 29,000 compounds were called active. This excerpt belongs to a sample that is enriched for actives.
Classification field: Condition met = z-score at or over -1; Condition not met = z-score under -1.

Answered examples (3):
CC(C)Cn1c(=O)c2ccccc2n2c(CCC(=O)N3CCN(c4cccc(Cl)c4)CC3)nnc12
Condition not met
COc1cccc(-c2nc(CS(=O)(=O)CC(=O)NCCc3ccc(OC)c(OC)c3)c(C)o2)c1
Condition met
Cc1nn(C)c2c1C(NC(=O)c1cc(CC(C)C)on1)CCC2 (stereo not given)
Condition met

# check: z-score of Cc1nn(-c2nc(-c3ccccc3)cc(C(F)(F)F)n2)c(C)c1Cl is greater than or equal to -1
Condition met

Textbook exercise: given the entry CCCS(=O)(=O)c1c(Nc2ccccc2C)sc(C(=O)c2ccccc2)c1N , state whether its z-score is greater than or equal to -1.
Condition met

Is reported z-score greater than or equal to -1 here: CCCCOCC(=O)N1CCCC(c2ccn(CC(=O)O)n2)C1 (stereo not given)
Condition not met

Confirm if z-score reported for the compound Cn1c(=O)c2c(nc(SCC(=O)Nc3ccc(F)cc3)n2Cc2ccccc2)n(C)c1=O is -1 or above.
Condition not met

Reported z-score at or above -1? CCC(=O)N1CCc2cc(Br)cc(S(=O)(=O)CCC(=O)NCc3ccccc3OC)c21
Condition met

Would you say Cc1cccc(C(=O)N2CCC[C@@]3(CN(Cc4ncc(C)[nH]4)CCC3O)C2)c1 (stereo not given in full) shows z-score at minimum -1?
Condition met

Could you tell me if the measured z-score of CN(CC(=O)Nc1cccc(C(F)(F)F)c1)S(=O)(=O)c1cccs1 reaches -1 or more?
Condition not met

Exam item: decide whether the reported z-score for COc1cc(Br)cc2cc(S(=O)(=O)c3ccccc3)c(=O)oc12 is at least -1.
Condition met

Determine whether measured z-score meets or exceeds -1 for Cc1cc(C(=O)NCc2nc(N)n[nH]2)c2c(C)nn(C)c2n1
Condition met

Reported z-score reaches at least -1 for Cc1ccc(Cl)cc1NC(=O)CCS(=O)(=O)c1ccc(Br)s1 ?
Condition not met

Is z-score at least -1? Consider CCOc1ccccc1NC(=O)Cn1c(=O)n(Cc2ccco2)c(=O)c2sc3ccccc3c21
Condition not met

* * *

assay: fixK promoter GFP reporter activation – B. multivorans, primary screen (AID 1918990); conditions: 18 h
In all, about 29,000 compounds went through this assay and about 85 (0.3%) were called active.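 How the source made its calls: active means replicate mean overnight rise in green fluorescent reporter signal, 3 or more SD over negative controls; inactive means the rest.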 Many of the other results were omitted from the sample, so actives are more common in it than they were.
// classify into label 1 for active, label 0 for inactive

These recorded examples may help you get a feel for the data.
COc1ccc(OCCCn2c(C3CC(=O)N(c4ccc(F)cc4)C3)nc3ccccc32)cc1 (centres undefined)
label 0
Cc1cc(C)cc(NS(=O)(=O)c2ccc3[nH]cc(C(=O)N4CCCCC4)c(=O)c3c2)c1
label 0
Cc1ccc(NC(=O)NC(C)c2c(-n3cccc3)sc(C)c2C)c(C)c1 (centres undefined)
label 0
CCc1ccccc1NC(=O)N1CCC2(CC1)Oc1ccccc1C(=O)N2Cc1ccccc1F
label 0

How was COc1cc(NS(=O)(=O)c2cccs2)cc(OC)c1 classified in this test?
label 0

Given CCCOc1ccc(C2c3c(-c4ccccc4O)n[nH]c3C(=O)N2Cc2cccnc2)cc1 (centres undefined) , state the outcome it received in this test.
label 0

Which outcome did this test record for the compound CC(NC(=O)CCN1CCN(C)CC1)c1cnn(-c2ccccc2)c1 (centres undefined) ?
label 0

For this compound, state the assay outcome: Cc1cccc(NC(=O)C2CCCN2S(=O)(=O)c2cccc3nsnc23)c1C (centres undefined)
label 0

Query: recorded result category for O=C(CSc1ccncc1)NC1CCOCC1Oc1cccc(F)c1 (centres undefined) in this test
label 0

* * *

assay: fixK promoter GFP reporter activation – B. multivorans, primary screen (AID 1918990); details: 18 h, stronger effect = higher value
About 85 (0.3%) of roughly 29,000 compounds were called active. This is one part of a sample in which actives are shown more often than they occur.
Given measured z-score, output yes if it is greater than or equal to -1 and no if not.

COc1cc(C(=O)N2CCC(O)(c3ccc(C)cn3)CC2)nc(OC)n1
no
CCOc1ccc(NC(=O)c2cnn(-c3ccccc3)c2-n2cccc2)cc1
yes
O=C1CC(c2nnc(Cc3ccc(Cl)cc3)o2)CN1c1ccccc1 (stereo unspecified)
yes
COc1ccccc1CNC(=O)CCCn1c(=O)c2ccccc2n(CC(=O)Nc2ccc(C)cc2Cl)c1=O
no
CC1CCC2(CC1)N=C(c1ccccc1)C(=O)N2CC(=O)Nc1ccc(F)c(Cl)c1 (stereo unspecified)
no

Textbook exercise: given the entry CC(C)CC(=O)C1CCCN(C(=O)c2ccc(N3CCC(O)CC3)nc2)C1 (stereo unspecified) , state whether its z-score is greater than or equal to -1.
yes

I'd appreciate it if you could say whether CCC(=O)N1CCc2cc(S(=O)(=O)CCC(=O)N3CCN(c4ccccc4F)CC3)ccc21 has z-score at least equal to -1.
no

Could you tell me if the measured z-score of COc1cc(OC)c(N(C)C(=O)c2cc3c(=O)oc4ccccc4c3s2)cc1Cl reaches -1 or more?
no

Hi team, for COc1cc(NC(=O)CCNC(=O)Cn2ccc3ccccc3c2=O)cc(OC)c1OC , is the recorded z-score at or above -1?
yes

Hi, just wondering whether CC1CCCCN1Cc1c(O)ccc2c(=O)c(-c3cccc(Cl)c3)c(C(F)(F)F)oc12 (stereo unspecified) shows z-score of -1 or higher.
no

Could you verify whether the entry CC(Sc1oc(-c2ccco2)nc1S(=O)(=O)c1ccc(Br)cc1)c1ccccc1 (stereo unspecified) shows z-score of no less than -1?
no

Reported z-score at or above -1? Cc1ccc(C)c(N2CCN(C(=O)CN3C(=O)COc4ccc(S(=O)(=O)N5CCCCCC5)cc43)CC2)c1
yes

I'd appreciate it if you could say whether CN(C)C1CN(Cc2cnc(-c3ccc(Cl)cc3)nc2)CC1O (stereo unspecified) has z-score at least equal to -1.
yes

* * *

The following molecules are listed with their measured z-score values.
test: fixK promoter GFP reporter activation – B. multivorans, primary screen (AID 1918990); conditions: 18 h, stronger effect = higher value
Hit rate of the full screen: of about 29,000 compounds, about 85 (0.3%) were called active. The full list was thinned out, with actives kept by preference.
Just the number, please, no unit after it.

Examples with their reported z-score follow.
CS(=O)(=O)N1CCCn2nc(CNC(=O)CC3CCCC3)cc2C1
-0.69
Cn1ccnc1C(O)c1cc2n(n1)CCN(Cc1cccc(Cl)c1)C2 (stereo not given)
0.34
COc1ccccc1-c1cc(C(F)(F)F)nc(S(=O)(=O)CCCC(=O)Nc2ccc(F)cc2F)n1
-0.87
COCC1C(NS(=O)(=O)c2ccc(F)cc2C)C2CCOC21 (stereo not given)
-0.38
COc1ccc(CNC(=O)c2cc3c(=O)[nH]c4ccc(C)cc4c3s2)c(OC)c1
-1.16
CCOC(=O)c1c(NC(=O)/C(C#N)=C/c2ccccc2)sc2c1CCC2
-0.67
COc1ccc(Cl)cc1NC(=O)NCC1CCN(Cc2ccccc2F)CC1
-7.23
CCOc1ccc(-c2n[nH]c3c2C(c2ccccc2OC)N(c2ccc(Br)cc2)C3=O)cc1 (stereo not given)
-0.62

Param item = CN1CCN(CC2(CNC(=O)CN(C)Cc3cccnc3)CC2)CC1 ; retrieve measured z-score.
-0.08

Which z-score is listed for Cc1ccc(-c2nc3cccc(C)n3c2Nc2ccc3c(c2)OCCO3)cc1 ?
0.46

Consider the molecule CCn1c(C(=O)Nc2cc(Cl)ccc2C)cc2sc(Cl)cc21 and give its measured z-score.
-0.88

// lookup z-score for Cc1cc(C(=O)NCCCc2nnc3ccccn23)nc(C)n1
-0.17

If you can, please state the reported z-score value of COc1cccc(OCc2cc(C(=O)N(C)Cc3nncn3C)n[nH]2)c1 .
-1.49
